# assay-remarks: Pharmacokinetics in mice (plasma exposure after oral administration)
# Type: in vivo
# assay-conditions: mouse, ICR mice, oral (i.g.) 3 mg/kg, read-out: After oral administration of 3 mg/kg, mouse plasma exposure AUCinf
reported-property: AUC(0-inf)

# molecule, AUC(0-inf)
data = [
    ("Cc1nc(-c2nccc(COc3ccc(C(C)(C)c4ccc(O[C@H]5C[C@H](Nc6ccc7c(c6)C(=O)N(C6CCC(=O)NC6=O)C7=O)C5)cc4)cc3)n2)no1 (some centres unmarked) [Example 279]", "5000 to 30000 ng·h/mL"),
    ("CC(C)(c1ccc(OCc2ccnc(N3CC4(COC4)C3)n2)cc1)c1ccc(OC2CN(Cc3ccc4c(c3)C(=O)N(C3CCC(=O)NC3=O)C4=O)C2)cc1 (centres unmarked) [Example 148]", "1000 to 5000 ng·h/mL"),
    ("C=CC(c1ccc(OCc2ccnc(N3CC4(COC4)C3)n2)cc1)c1ccc(O[C@H]2C[C@H](Nc3ccc4c(c3)C(=O)N(C3CCC(=O)NC3=O)C4=O)C2)cc1 (some centres unmarked) [Example 367]", "1000 to 5000 ng·h/mL"),
    ("Cc1nc(-c2ccc(Oc3ccc(C(C)(C)c4ccc(O[C@H]5C[C@H](Nc6ccc7c(c6)C(=O)N(C6CCC(=O)NC6=O)C7=O)C5)cc4)cc3)nn2)no1 (some centres unmarked) [Example 328]", "5000 to 30000 ng·h/mL"),
]

Okay, now this molecule:
Task: Determine its reported AUC(0-inf): CCC(CC)(c1ccc(Oc2cnc(-c3noc(C)n3)nc2)cc1)c1ccc(O[C@H]2C[C@@H](Nc3ccc4c(c3)C(=O)N(C3CCC(=O)NC3=O)C4=O)C2)cc1 (some centres unmarked) [Example 553]
Result: 5000 to 30000 ng·h/mL
